Tested Target: T1, AFP158/HLA-A*02:01 complex (human)
T1 construct: flowed as analyte in SPR
Assay Protocol: SPR, crude scFv captured, pMHC analyte;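 further: complex injected at several concentrations over the chip, association phase then running buffer for dissociation, KD derived from on- and off-rates computed from both curves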
Outcome Measure: pKd
Answers are plain numbers, as −log10 of the molar value.

[[record]]
binder = "AS170036 VL1VH1-56N98Q108S (scFv, also called 57-AS170036 VL1VH1-56N98Q108S) scFv: QSALTQPRSVSGSPGQSVTISCAGTSSDVGSENYVSWYQQHPGKAPKLMIYQVNKRASGVPDRFSGSKSGNTASLTISGLQAEDEADYYCASYRSSDQNIVFGGGTKLTVLGGGGSGGGGSGGGGSEVQLVESGGGLVQPGGSLRLSCAASGFTFSSYAMSWVRQAPGKGLEWVSTINSGTNSPYYADSVKGRFTISRDNSKNTLYLQMNSLRAEDTAVYYCAKNFFDGSWFLSPPAMDYWGQGTLVTVSSHHHHHH"
outcome_measure = "pKd"
endpoint_value = 7.96


Now let's try a different one.
Short answer for AS170036 VL1VH1-56Y98Q108A (scFv, also called 46-AS170036 VL1VH1-56Y98Q108A) scFv: QSALTQPRSVSGSPGQSVTISCAGTSSDVGSENYVSWYQQHPGKAPKLMIYQVNKRASGVPDRFSGSKSGNTASLTISGLQAEDEADYYCASYRSSDQNIVFGGGTKLTVLGGGGSGGGGSGGGGSEVQLVESGGGLVQPGGSLRLSCAASGFTFSSYAMSWVRQAPGKGLEWVSTINSGTYSPYYADSVKGRFTISRDNSKNTLYLQMNSLRAEDTAVYYCAKNFFDGSWFLAPPAMDYWGQGTLVTVSSHHHHHH : pKd was 8.92
